B1: library; numbered along this chain (parent)
chain: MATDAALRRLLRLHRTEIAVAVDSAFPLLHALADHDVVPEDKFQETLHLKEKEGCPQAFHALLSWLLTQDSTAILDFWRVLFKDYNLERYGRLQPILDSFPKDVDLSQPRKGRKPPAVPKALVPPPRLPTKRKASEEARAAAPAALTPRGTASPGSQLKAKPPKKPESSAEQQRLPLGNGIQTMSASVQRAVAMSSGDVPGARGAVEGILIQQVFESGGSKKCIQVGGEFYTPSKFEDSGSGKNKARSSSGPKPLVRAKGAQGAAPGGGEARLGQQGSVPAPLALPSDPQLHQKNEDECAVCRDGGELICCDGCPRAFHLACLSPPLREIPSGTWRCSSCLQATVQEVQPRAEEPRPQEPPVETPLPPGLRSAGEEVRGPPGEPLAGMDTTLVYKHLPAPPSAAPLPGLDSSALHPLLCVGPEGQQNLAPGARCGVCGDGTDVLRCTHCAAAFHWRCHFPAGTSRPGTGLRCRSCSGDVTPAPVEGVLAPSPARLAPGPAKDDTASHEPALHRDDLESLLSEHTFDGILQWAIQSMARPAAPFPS

Variants of: B1
Assay: AIRE transcriptional activation functional score (insulin promoter-GFP; nonsense median 0, synonymous median 1) (normalised score); higher = higher AIRE activity (more reporter activation)
Details: with insulin promoter-GFP reporter in HEK293
# cutoff 1 applies to AIRE transcriptional activation functional score; >= gives Criterion met, < gives Criterion not met

IN: In plain terms: is recorded AIRE transcriptional activation functional score at least 1 for A160H ?
OUT: Criterion not met

IN: In plain terms: is recorded AIRE transcriptional activation functional score at least 1 for Q94H ?
OUT: Criterion not met

IN: In plain terms: is recorded AIRE transcriptional activation functional score at least 1 for F43D ?
OUT: Criterion not met

IN: In plain terms: is recorded AIRE transcriptional activation functional score at least 1 for T183K ?
OUT: Criterion not met

IN: In plain terms: is recorded AIRE transcriptional activation functional score at least 1 for A191P ?
OUT: Criterion not met

IN: In plain terms: is recorded AIRE transcriptional activation functional score at least 1 for F318S ?
OUT: Criterion met

IN: In plain terms: is recorded AIRE transcriptional activation functional score at least 1 for L122D ?
OUT: Criterion met

IN: In plain terms: is recorded AIRE transcriptional activation functional score at least 1 for A413C ?
OUT: Criterion met

IN: In plain terms: is recorded AIRE transcriptional activation functional score at least 1 for G240H ?
OUT: Criterion not met

IN: In plain terms: is recorded AIRE transcriptional activation functional score at least 1 for D442A ?
OUT: Criterion not met

IN: In plain terms: is recorded AIRE transcriptional activation functional score at least 1 for G251D ?
OUT: Criterion met

IN: In plain terms: is recorded AIRE transcriptional activation functional score at least 1 for R351A ?
OUT: Criterion met

IN: In plain terms: is recorded AIRE transcriptional activation functional score at least 1 for F453G ?
OUT: Criterion not met

IN: In plain terms: is recorded AIRE transcriptional activation functional score at least 1 for L273T ?
OUT: Criterion not met

IN: In plain terms: is recorded AIRE transcriptional activation functional score at least 1 for K161F ?
OUT: Criterion met

IN: In plain terms: is recorded AIRE transcriptional activation functional score at least 1 for I74N ?
OUT: Criterion not met

IN: In plain terms: is recorded AIRE transcriptional activation functional score at least 1 for G274C ?
OUT: Criterion not met

IN: In plain terms: is recorded AIRE transcriptional activation functional score at least 1 for T147A ?
OUT: Criterion not met

IN: In plain terms: is recorded AIRE transcriptional activation functional score at least 1 for A343K ?
OUT: Criterion not met

IN: In plain terms: is recorded AIRE transcriptional activation functional score at least 1 for P331D ?
OUT: Criterion met

IN: In plain terms: is recorded AIRE transcriptional activation functional score at least 1 for R513W ?
OUT: Criterion not met

IN: In plain terms: is recorded AIRE transcriptional activation functional score at least 1 for A343W ?
OUT: Criterion met

IN: In plain terms: is recorded AIRE transcriptional activation functional score at least 1 for P360M ?
OUT: Criterion met

IN: In plain terms: is recorded AIRE transcriptional activation functional score at least 1 for K165F ?
OUT: Criterion met

IN: In plain terms: is recorded AIRE transcriptional activation functional score at least 1 for E347D ?
OUT: Criterion met

IN: In plain terms: is recorded AIRE transcriptional activation functional score at least 1 for A452S ?
OUT: Criterion met

Where do the numbers come from? From the supplement of paper PMC12667976.
